Target: Mitogen-activated protein kinase kinase kinase 2 (Homo sapiens) + Dual specificity mitogen-activated protein kinase kinase 5 (Homo sapiens) (UniProt Q9Y2U5+Q13163)
Sequence (Q13163 whole entry, looked up): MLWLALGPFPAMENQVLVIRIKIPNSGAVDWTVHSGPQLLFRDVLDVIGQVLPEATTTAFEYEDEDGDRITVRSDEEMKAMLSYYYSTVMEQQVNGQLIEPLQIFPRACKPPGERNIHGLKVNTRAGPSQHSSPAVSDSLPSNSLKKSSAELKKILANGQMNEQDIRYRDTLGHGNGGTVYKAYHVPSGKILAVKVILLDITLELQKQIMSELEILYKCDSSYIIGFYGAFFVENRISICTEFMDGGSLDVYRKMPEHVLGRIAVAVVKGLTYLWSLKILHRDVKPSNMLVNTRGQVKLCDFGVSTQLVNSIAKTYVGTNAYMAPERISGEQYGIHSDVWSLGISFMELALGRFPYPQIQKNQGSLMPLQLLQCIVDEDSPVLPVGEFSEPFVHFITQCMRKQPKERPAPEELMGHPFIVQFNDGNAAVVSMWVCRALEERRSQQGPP
Sequence (Q9Y2U5 whole entry, looked up): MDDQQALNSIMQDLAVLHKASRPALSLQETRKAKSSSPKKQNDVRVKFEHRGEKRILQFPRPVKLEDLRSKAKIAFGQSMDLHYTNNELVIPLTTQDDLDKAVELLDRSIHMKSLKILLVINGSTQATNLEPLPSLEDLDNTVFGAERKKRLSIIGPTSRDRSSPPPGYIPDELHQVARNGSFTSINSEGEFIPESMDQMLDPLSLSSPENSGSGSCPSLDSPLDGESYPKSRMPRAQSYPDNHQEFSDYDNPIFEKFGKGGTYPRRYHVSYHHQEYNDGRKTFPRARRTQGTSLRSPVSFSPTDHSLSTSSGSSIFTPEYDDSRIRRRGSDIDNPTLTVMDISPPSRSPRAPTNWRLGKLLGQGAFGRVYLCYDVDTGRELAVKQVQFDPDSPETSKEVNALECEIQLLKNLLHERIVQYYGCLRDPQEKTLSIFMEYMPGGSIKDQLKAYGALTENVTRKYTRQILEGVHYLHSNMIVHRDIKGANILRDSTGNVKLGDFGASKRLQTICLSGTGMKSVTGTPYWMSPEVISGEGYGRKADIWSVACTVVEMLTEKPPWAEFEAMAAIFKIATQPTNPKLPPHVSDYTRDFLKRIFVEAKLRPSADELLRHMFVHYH
Test: inhibitors of MEK5 binding to MEKK2, dose response, biochemical, bead multiplex flow cytometry, wildtype (AID 1897)
Details: MEK5-MEKK2 PB1 binding
Active and inactive are the calls of the source. How the calls were made is not given here.
Hello, when you answer, please use one of the following outcomes: active, inactive

Test call, this compound: COCc1c(C#N)c(NCCc2ccccc2)nc(C)c1[N+](=O)[O-]
inactive

Fill in: this test's call for COc1ccc(NC(=O)N(Cc2cc3cc(C)ccc3[nH]c2=O)CC2CCCO2)cc1 (configuration not stated) is ___
inactive

Could you kindly confirm the outcome this assay logged for CN1CCN(CC(O)COc2ccc(C34CC5CC(CC(C5)C3)C4)cc2)CC1 (configuration not stated) ?
inactive

Outcome? S=C(Nc1cccc(Cl)c1)N(CCCN1CCCC1)Cc1cccn1Cc1ccc(Cl)cc1
active

----------
Target: Mitogen-activated protein kinase kinase kinase 2 (Homo sapiens) + Dual specificity mitogen-activated protein kinase kinase 5 (Homo sapiens) (UniProt Q9Y2U5+Q13163)
Assay: inhibitors of MEK5 binding to MEKK2, dose response, biochemical, bead multiplex flow cytometry, wildtype (AID 1897)
Conditions: MEK5-MEKK2 PB1 binding, measured here: Ki from binding competition
pKi: −log10 of the molar value.
measured-parameter: pKi

Known results for compounds:
CCNc1ccc2noc3c2c1C(=O)c1ccccc1-3: 5.35
CCC(/C=C1\Sc2ccc(OC)cc2N1CCO)=C\c1sc2ccc(OC)cc2[n+]1CCO: 6.11
Cc1nn2c(N)csc2nc1=O: 5.44
N#CC(C#N)=c1ccc2c(c1)N1C(c3ccccc3)=CC(c3ccccc3)C3CCCCC31N=2 (stereo unspecified): 5.76
Nc1cc2nc[nH]c2cc1N: 5.02
COc1cccc(OC)c1-c1nn2c(-c3cc(-c4ccccc4)n[nH]3)nnc2s1: 5.32
Cc1cc2ccccc2n1CCNC(=O)c1cccs1: 4.88
CN1CCN(c2ccc(NC(=O)c3ccc(-c4ccc(Cl)cc4)o3)cc2)CC1: 5.69
CCN1C(c2ccccc2)=C(c2ccccc2)S/C1=C\C=C1/SC(=S)N(C)C1=O: 5.52

a. CCCCn1c(O)c(/C=C/C=C/C=Nc2ccccc2)sc1=S
b. Cc1cc2ccccc2n1CCNC(=O)c1ccc(Br)o1
Higher pKi: a or b ? Please reply using the label of the selected record.
a
(a: 6.00, b: 5.51)

----------
Target: Mitogen-activated protein kinase kinase kinase 2 (Homo sapiens) + Dual specificity mitogen-activated protein kinase kinase 5 (Homo sapiens) (UniProt Q9Y2U5+Q13163)
Test: inhibitors of MEK5 binding to MEKK2, dose response, biochemical, bead multiplex flow cytometry, wildtype (AID 1897)
Conditions: MEK5-MEKK2 PB1 binding, measured here: Ki from binding competition
measured-parameter: Ki (nM)

Known results for molecules:
CCOC(=O)C(C(=O)OCC)c1cc(Br)c2noc3c2c1C(=O)c1ccccc1-3: 2530
Cc1cc2ccccc2n1CCNC(=O)c1ccccc1: 2700
CCC(=C/c1sc2ccc3ccccc3c2[n+]1C)/C=C1\Sc2ccc3ccccc3c2N1C: 120
CCN1C(c2ccccc2)=C(c2ccccc2)S/C1=C/C=C1\SC(=S)N(C)C1=O: 2440

a. COc1ccc(-n2nc3c(N)n[nH]c3cc2=O)cc1
b. CCN1/C(=C/C(C)=C/c2sc3ccccc3[n+]2CC)Sc2ccccc21
Which of the two items, a and b , has the greater recorded Ki? To answer, give the label that identifies your chosen option.
a
(a: 1330 nM, b: 470 nM)

----------
Target: Mitogen-activated protein kinase kinase kinase 2 (Homo sapiens) + Dual specificity mitogen-activated protein kinase kinase 5 (Homo sapiens) (UniProt Q9Y2U5+Q13163)
Test: inhibitors of MEK5 binding to MEKK2, dose response, biochemical, bead multiplex flow cytometry, wildtype (AID 1897)
Conditions: MEK5-MEKK2 PB1 binding
Active and inactive are the calls of the source. How the calls were made is not given here.
Please answer using one outcome listed in active, inactive

CNC[C@H](CC1CCCCC1)NC[C@H](Cc1ccccc1)NCCC12CC3CC(CC(C3)C1)C2: active
CCOC(=O)c1c(-c2ccc(-c3ccccc3)cc2)csc1NC(=O)CNCCN(C)C: active
C#CCOCCOCCOCCNc1nc(N2CCN(C(=O)[C@H](Cc3ccc(O)cc3)n3cc([C@@H](N)C(C)CC)nn3)CC2)nc(N2CCN(C(=O)[C@H](Cc3cc4ccccc4[nH]3)n3cc([C@@H](N)CC(C)C)nn3)CC2)n1 (some centres undefined): inactive

# ---- query compound ----
What is the recorded call for this compound in the test? CCCN(CCC)CCNC(=O)c1cc2c(-c3ccc(Cl)cc3)nn(C)c2s1
active

----------
Target: Mitogen-activated protein kinase kinase kinase 2 (Homo sapiens) + Dual specificity mitogen-activated protein kinase kinase 5 (Homo sapiens) (UniProt Q9Y2U5+Q13163)
Assay: inhibitors of MEK5 binding to MEKK2, dose response, biochemical, bead multiplex flow cytometry, wildtype (AID 1897)
Settings: MEK5-MEKK2 PB1 binding
Active and inactive are the calls of the source. No rule for the calls is given here.
Permitted responses: t for active, f for inactive

Example results:
COc1ccc(C2NCCc3c2[nH]c2ccccc32)cc1CN1CCc2cc(OC)c(OC)cc2C1C (configuration not stated): t
CC(=O)Nc1cccc2c1C(=O)N(c1cccc(C)c1)C2=O: f
Nc1ccc(Nc2ccccc2N)cc1: t

Hi team, can someone confirm the assay call for NC(N)=N/N=C/c1ccc(OCc2ccc(Cl)cc2Cl)cc1 ?
t

Please indicate how the test categorized CCCCCCCCCCOC(=O)Cn1c(COc2ccccc2C)[n+](C)c2ccccc21 .
f

Call for entry CCN1/C(=C\c2ccc3cc(C)ccc3[n+]2CC)Sc2cc(C)c(C)cc21 :
f

Can you look up the reported call for CN(C)c1ccc(NC(=O)CN2CCC(O)(c3ccccc3)CC2)cc1 for me?
f

Hi, sorry to bother you, what did the test record for CCN(CC)CCOC(=O)c1ccc(N/C=C(/C#N)c2nc(-c3cccc(OC)c3)cs2)cc1 ?
f

----------
Collected EC50 values appear next to each entry.
Molecular target: Mitogen-activated protein kinase kinase kinase 2 (Homo sapiens) + Dual specificity mitogen-activated protein kinase kinase 5 (Homo sapiens) (UniProt Q9Y2U5+Q13163)
Experiment: inhibitors of MEK5 binding to MEKK2, dose response, biochemical, bead multiplex flow cytometry, wildtype (AID 1897)
Conditions: MEK5-MEKK2 PB1 binding
Calls of active or inactive are those of the source. How the calls were made is not given here.

Sample records with EC50:
CCN1/C(=C/c2ccc3cc(C)ccc3[n+]2CC)Sc2cc(C)c(C)cc21: 2.63 µM
C#CCOCCOCCOCCNc1nc(N2CCN(C(=O)[C@H]([C@@H](C)CC)n3cc([C@@H](N)Cc4ccc(O)cc4)nn3)CC2)nc(N2CCN(C(=O)[C@H](Cc3cc4ccccc4[nH]3)n3cc([C@@H](N)C(C)CC)nn3)CC2)n1 (stereo partly drawn): 3.73 µM
Cc1ccc(-c2c[n+](CC(=O)Nc3nc(-c4ccc(F)cc4)cs3)c3n2CCC3)cc1: 9.91 µM
CCCCCCCCCCOC(=O)Cn1c(COc2cccc(OC)c2)[n+](C)c2ccccc21: 4.33 µM
CCN1C(c2ccccc2)=C(c2ccccc2)S/C1=C\C=C1/SC(=S)N(C)C1=O: 3.38 µM
CCn1cc(C(=O)O)c(=O)c2cc(F)c(N3CCN(C(=S)NC(=O)c4ccc(Br)cc4)CC3)cc21: > 30 µM (inactive)

Can you share its EC50? I mean this compound: CCCCCc1cc(=O)oc2c(C(CCN3CCCC(C)C3)c3ccc(OC)cc3)c(OC)cc(OC)c12 (stereo not drawn)
9.57 µM

# EC50 lookup, item COc1ccc(/C=N/Nc2cc(C)nc3ccc(Br)cc23)cc1
1.94 µM

Need EC50, item CCOc1cccc2sc(N(CCCN(C)C)C(=O)c3ccc(S(=O)(=O)N4CCc5ccccc5C4)cc3)nc12
13.2 µM

Need EC50 of C#CCOCCOCCOCCNc1nc(N2CCN(C(=O)C(Cc3cc4ccccc4[nH]3)n3cc(C(N)C(C)CC)nn3)CC2)nc(N2CCN(C(=O)C(Cc3cc4ccccc4[nH]3)n3cc(C(N)C(C)CC)nn3)CC2)n1 (stereo not drawn) , thanks.
1.75 µM

Quick one: EC50 for CCN(Cc1ccccc1)S(=O)(=O)c1ccc(C(=O)N(CCCN(C)C)c2nc3ccc(F)cc3s2)cc1 ?
5.81 µM

----------
Target: Mitogen-activated protein kinase kinase kinase 2 (Homo sapiens) + Dual specificity mitogen-activated protein kinase kinase 5 (Homo sapiens) (UniProt Q9Y2U5+Q13163)
Test: inhibitors of MEK5 binding to MEKK2, dose response, biochemical, bead multiplex flow cytometry, wildtype (AID 1897)
Details: MEK5-MEKK2 PB1 binding
Activity calls are given as the source filed them. The rule behind the calls is not given here.
Pick one and only one: active, inactive

Examples with answers:
Cc1ccc(-n2cc(CNCCCn3ccnc3C)c(-c3ccc(F)cc3)n2)cc1: inactive
CN1C(=CC=C2C=C(I)C(=O)C(I)=C2)C(C)(C)c2ccccc21: active
Cc1ccnc(NC(=O)C2(c3cccs3)CCOCC2)c1: inactive
COC(=O)c1c(C)oc(C)c1S(=O)(=O)N(Cc1ccccc1)C(C)C: inactive
C#CCOCCOCCOCCNc1nc(N2CCN(C(=O)[C@H]([C@@H](C)CC)n3cc([C@@H](N)CO)nn3)CC2)nc(N2CCN(C(=O)[C@H](Cc3cc4ccccc4[nH]3)n3cc([C@@H](N)C(C)CC)nn3)CC2)n1 (stereo partly drawn): inactive

Record request — test call for C#CCOCCOCCOCCNc1nc(N2CCN(C(=O)[C@H](Cc3ccc(O)cc3)n3cc([C@@H](N)CC(C)C)nn3)CC2)nc(N2CCN(C(=O)[C@H](Cc3ccc(O)cc3)n3cc([C@@H](N)CC(C)C)nn3)CC2)n1
active

What did the test return for CCCCn1c(O)c(/C=C/C=C/C=Nc2ccccc2)sc1=S ?
active

Which result was noted for this molecule in the test: CNc1nc(-c2c[nH]c3ccccc23)cs1
inactive

Hi, sorry to bother you, what did the test record for CCN1CCN(CCNC(=O)c2ccc(/C=C3/Sc4ccccc4N(Cc4cccc(Cl)c4)C3=O)cc2)CC1 ?
active

Given COC(=O)C1=C(C)N(Cc2ccccc2)C(=NCc2cccc(C(F)(F)F)c2)N[C@H]1c1cccc(F)c1 , state the outcome it received in this test.
active

# fetch the recorded call for COc1ccc(-c2cc(C#N)nc(N3CCNCC3)n2)cc1 here
inactive

Hi, do you know how O=C(NNc1c2ccccc2nc2ccccc12)c1cc2ccccc2cc1O came out in this test?
inactive

Recorded call for CC(=O)Nc1ccc(OCC(O)Cn2c3ccccc3c3ccccc32)cc1 (stereo not drawn) ?
inactive

Cited source for all entries: PubChem BioAssay AID1897
